experiment: Bioavailability in dog at 10 mg/kg, po; type: ADME, organism-based, Canis lupus familiaris; conditions: in vivo
property: bioavailability (%)

For orientation, consider the following solved cases.
N#Cc1ccc(NCC(F)(F)c2ccccn2)c(F)c1CC(=O)NCCONC(=N)N	49
Cc1cccc(C(F)(F)CNc2ccc(C#N)c(CC(=O)NCCONC(=N)N)c2F)n1	65

(a) Cc1ccc(C(F)(F)CNc2ccc(C#N)c(CC(=O)NCCONC(=N)N)c2F)nc1
(b) Cc1nc(N)ccc1CNC(=O)Cc1c(C#N)ccc(NCC(F)(F)c2ccccn2)c1F
Input: # argmax over bioavailability for candidates a and b Lab log: write the label of the selected item as the result.
Output: a

----------
test: Half life in rat at 3 mg/kg, iv; type: ADME, organism-based; set-up: dose 3 mg/kg, route intravenous; conditions: in vivo
property: half-life (h)
Please reply with the bare figure in h and do not write the unit itself.

Input: Recorded half-life of Cc1ccc(C(F)(F)CNc2ccc(C#N)c(CC(=O)NCCONC(=N)N)c2F)nc1 , please.
Output: 1.3

----------
test: Metabolic stability in dog liver microsomes after 10 mins; format: ADME, Canis lupus familiaris, Microsome; details: read-out: Stability
property: remaining at 10 min (%)
Please reply with the bare figure in % and do not write the unit itself.

Input: Recorded remaining at 10 min of Cc1nc(N)ccc1CNC(=O)Cc1c(C#N)ccc(NCC(F)(F)c2ccccn2)c1F , please.
Output: 100

----------
assay: Cmax in rat at 10 mg/kg, po; format: ADME, organism-based; parameters: dose 10 mg/kg, route oral; conditions: in vivo
property: Cmax (nM)
Please reply with the bare figure in nM and do not write the unit itself.

Input: Recorded Cmax of N#Cc1ccc(NCC(F)(F)c2ccccn2)c(F)c1CC(=O)NCCONC(=N)N , please.
Output: 30

----------
assay: Bioavailability in rat at 30 mg/kg, po; type: ADME, organism-based; conditions: in vivo
property: bioavailability (%)
Please reply with the bare figure in % and do not write the unit itself.

Input: Recorded bioavailability of Cc1ccc(C(F)(F)CNc2ccc(C#N)c(CC(=O)NCCONC(=N)N)c2F)nc1 , please.
Output: 2

----------
assay: Bioavailability in rat at 10 mg/kg, po; type: ADME, organism-based; conditions: in vivo
property: bioavailability (%)
Please reply with the bare figure in % and do not write the unit itself.

Input: Recorded bioavailability of N#Cc1ccc(NCC(F)(F)c2ccccn2)c(F)c1CC(=O)NCCONC(=N)N , please.
Output: 2

----------
test: Clearance in rat at 2 mg/kg, iv; type: ADME, organism-based; design: dose 2 mg/kg, route intravenous; settings: in vivo
property: clearance (L/h/kg)
Please reply with the bare figure in L/h/kg and do not write the unit itself.

Input: Recorded clearance of N#Cc1ccc(NCC(F)(F)c2ccccn2)c(F)c1CC(=O)NCCONC(=N)N , please.
Output: 4.02

----------
test: Half life in dog at 10 mg/kg, po; type: ADME, organism-based, Canis lupus familiaris; parameters: dose 10 mg/kg, route oral; conditions: in vivo
property: half-life (h)

Cc1cccc(C(F)(F)CNc2ccc(C#N)c(CC(=O)NCCONC(=N)N)c2F)n1	3.2
Cc1ccc(C(F)(F)CNc2ccc(C#N)c(CC(=O)NCCONC(=N)N)c2F)nc1	2.5
N#Cc1ccc(NCC(F)(F)c2ccccn2)c(F)c1CC(=O)NCCONC(=N)N	2.5

----------
assay: Cmax in rat at 30 mg/kg, po; format: ADME, organism-based; design: dose 30 mg/kg, route oral; settings: in vivo
property: Cmax (µM)
Please reply with the bare figure in µM and do not write the unit itself.

Input: Recorded Cmax of Cc1ccc(C(F)(F)CNc2ccc(C#N)c(CC(=O)NCCONC(=N)N)c2F)nc1 , please.
Output: 0.25

----------
assay: Clearance in dog at 1 mg/kg, iv; format: ADME, organism-based, Canis lupus familiaris; design: dose 1 mg/kg, route intravenous; conditions: in vivo
property: clearance (mL/min/kg)

For orientation, consider the following solved cases.
N#Cc1ccc(NCC(F)(F)c2ccccn2)c(F)c1CC(=O)NCCONC(=N)N	13
Cc1ccc(C(F)(F)CNc2ccc(C#N)c(CC(=O)NCCONC(=N)N)c2F)nc1	18

(I) Cc1cccc(C(F)(F)CNc2ccc(C#N)c(CC(=O)NCCONC(=N)N)c2F)n1
(II) Cc1nc(N)ccc1CNC(=O)Cc1c(C#N)ccc(NCC(F)(F)c2ccccn2)c1F
Input: Between the entries labeled I and II , whose measured clearance is lower? Lab log: write the label of the selected item as the result.
Output: I
(I: 15 mL/min/kg, II: 34 mL/min/kg)

----------
test: Half life in iv dosed dog; format: ADME, organism-based, Canis lupus familiaris; conditions: in vivo
property: half-life (h)

(A) Cc1nc(N)ccc1CNC(=O)Cc1c(C#N)ccc(NCC(F)(F)c2ccccn2)c1F
(B) CCCN(Cc1ccoc1)C(=O)c1cc(C)cc(OCC2(CON=C(N)N)CC2)c1
Input: Between the entries labeled A and B , whose measured half-life is lower? Lab log: write the label of the selected item as the result.
Output: A

----------
experiment: Oral bioavailability in dog; format: ADME, organism-based, Canis lupus familiaris; details: in vivo
property: bioavailability (%)
Please reply with the bare figure in % and do not write the unit itself.

Input: Recorded bioavailability of Cc1cccc(S(=O)(=O)Nc2ccc(C)n(CC(=O)NCCONC(=N)N)c2=O)c1 , please.
Output: 24

----------
test: Cmax in po dosed dog; assay type: ADME, organism-based, Canis lupus familiaris; set-up: route oral; conditions: in vivo
property: Cmax (nM)
Please reply with the bare figure in nM and do not write the unit itself.

Input: Recorded Cmax of Cc1nc(N)ccc1CNC(=O)Cc1c(C#N)ccc(NCC(F)(F)c2ccccn2)c1F , please.
Output: 800

----------
assay: Metabolic stability in human liver microsomes after 10 mins; format: ADME, Microsome; conditions: read-out: Stability
property: remaining at 10 min

Input: Recorded remaining at 10 min of N#Cc1ccc(NCC(F)(F)c2ccccn2)c(F)c1CC(=O)NCCONC(=N)N , please.
Output: ≥ 86%

----------
test: Half life in rat at 30 mg/kg, po; assay type: ADME, organism-based; parameters: dose 30 mg/kg, route oral; conditions: in vivo
property: half-life (h)
Please reply with the bare figure in h and do not write the unit itself.

Input: Recorded half-life of Cc1ccc(C(F)(F)CNc2ccc(C#N)c(CC(=O)NCCONC(=N)N)c2F)nc1 , please.
Output: 2.5

----------
assay: Volume of distribution at steady state in dog at 1 mg/kg, iv; assay type: ADME, organism-based, Canis lupus familiaris; set-up: dose 1 mg/kg, route intravenous; details: in vivo, read-out: Vdss
property: Vd (L/kg)

Cc1cccc(C(F)(F)CNc2ccc(C#N)c(CC(=O)NCCONC(=N)N)c2F)n1	2.9
Cc1ccc(C(F)(F)CNc2ccc(C#N)c(CC(=O)NCCONC(=N)N)c2F)nc1	3.6
N#Cc1ccc(NCC(F)(F)c2ccccn2)c(F)c1CC(=O)NCCONC(=N)N	2.9
